Recorded IC50 for compounds tested on Coagulation factor XI (Homo sapiens, UniProt P03951), drawn from a number of studies.
Endpoint name: IC50 (nM)

A: Cn1cc2cc(NC(=O)C(Cc3ccccc3)n3cc4c(cc3=O)-c3cc(Cl)ccc3CC3(CC3)NC4=O)ccc2n1 (stereo not shown)
B: CC(C)CC(C(=O)Nc1ccc(-c2noc(=O)[nH]2)cc1)n1cc2c(cc1=O)-c1cc(Cl)ccc1CCNC2=O (stereo not shown)
C: O=C(O)c1ccc(NC(=O)[C@@H](Cc2ccccc2)c2ccc(-c3cc(Cl)ccc3-c3cnco3)c[n+]2[O-])cc1
Descending by IC50 please, for everything listed above. Put the labels in the requested order and list them out.
C, B, A

I: COCCC(C(=O)Nc1ccc(C(N)=O)cc1)n1cc2c(cc1=O)-c1cc(Cl)ccc1CC(C(F)(F)F)OC2 (mixture of isomers)
II: O=C(NC12CCC(C(=O)O)(CC1)CC2)C(Cc1ccccc1)c1ccc(-c2c(F)ccc(Cl)c2F)c[n+]1[O-] (single isomer, unassigned)
III: CC(C)C1Cc2ccc(Cl)cc2-c2cc(=O)n(C(C[C@@H]3COCCO3)C(=O)Nc3ccc4nn(C)nc4c3)cc2CO1 (mixture of isomers)
IV: Cc1cc([C@H](C)n2cc(NC(=O)c3nc(-c4c(OC(F)F)ccc(Cl)c4F)cnc3C)cn2)nnc1N1C[C@H]2C[C@H]2C1=O
V: O=C(O)c1ccc(NC(=O)C(CC2CC2F)c2ccc(-c3c(C(F)F)ccc(Cl)c3F)c[n+]2[O-])cc1 (single isomer, unassigned)
Hi! Can you put these in order of IC50, lowest number first? Use the labels to give the ranking in the order requested.
I, V, III, II, IV
(I: 8.1 nM, V: 27.9 nM, III: 49 nM, II: 111 nM, IV: 328 nM)

====

From various publications: pIC50 for Coagulation factor XI (Homo sapiens, UniProt P03951).
pIC50: −log10 of the molar value.
Endpoint name: pIC50

Compound	Endpoint name	Observed measurement
Nc1cc(-c2ccc(Cl)cc2)nn1CC(=O)N1CC[C@@]2(C1)OC(=O)Nc1ccc(Cl)c(F)c12	pIC50	5.81

A: CC(C)OCCn1ncc(C(=O)N2CCC[C@@]3(C2)OC(=O)Nc2ccc(Cl)c(F)c23)c1N
B: O=C(Nc1ccc2[nH]nc(O)c2c1)[C@@H]1CCC2CC(c3c(-n4cnnn4)ccc(Cl)c3F)=CC(=O)N21 (mixture of isomers)
C: Nc1c(Cl)c(-c2ncc(F)cc2F)nn1CC(=O)N1CC[C@@]2(C1)OC(=O)Nc1ccc(Cl)c(F)c12
D: COc1cn(C(Cc2ccn(C)n2)C(=O)Nc2ccc(C(N)=O)c(F)c2)c(=O)cc1-c1cc(Cl)ccc1OCC(F)(F)F (racemic)
List items by pIC50 in falling order. Quick reminder: the answer is the labels in the order asked.
D, B, A, C

====

# IC50 against UniProtKB P03951, merged from multiple literature sources
Endpoint name: IC50 (nM)

Sample answers from the record:
Compound	IC50, nM
O=C(Cn1c2c(c(-c3cc(Cl)ccc3C(F)(F)F)cc1=O)C(=O)CC2)Nc1ccc(-c2cc(=O)[nH][nH]2)cc1	750
O=C(O)c1ccc(NC(=O)C(CC2CC2)c2ccc(-c3c(F)ccc(Cl)c3F)c[n+]2[O-])cc1 (racemic)	134

I: Cc1cc2[nH]c(C(C)C)nc2cc1-c1ccc(C[C@H](NC(=O)C2CCC(CN)CC2)C(=O)Nc2ccc3[nH]c(=O)[nH]c3c2)cc1 (single isomer, unassigned; enantiomer 2)
II: COCc1ncc(-c2c(C(F)F)ccc(Cl)c2F)nc1C(=O)Nc1cnn(C(C)c2cnc(N3C[C@H]4C[C@H]4C3=O)c(C)n2)c1 (single isomer, unassigned)
From the recorded data, which exceeds the other in IC50: I or II ? When you have decided, please share the label of that item.
II
(II: 449 nM, I: 1.1 nM)

====

Hi, quick share: literature pIC50 data for UniProt P03951, several sources combined.
pIC50: −log10 of the molar value.
Endpoint name: pIC50

Molecule	pIC50
O=C(Nc1cnn(Cc2ccc(N3CCC3)nc2)c1)c1cncc(-c2c(C(F)F)ccc(Cl)c2F)n1	5.70
COc1cn(C(CC2COCCO2)C(=O)Nc2ccc(C(=O)O)cc2)c(=O)cc1-c1cc(Cl)ccc1OCC(F)(F)F (single isomer, unassigned)	9.28
CC(=O)c1ccc(Cl)cc1-c1cc(=O)n([C@@H](Cc2ccccc2)C(=O)Nc2ccc(C(=O)O)cc2)nc1OC(C)C	7.79
CC(c1cnc(N2CC3(CC3)C2)nc1)n1cc(NC(=O)c2cncc(-c3c(C(F)F)ccc(Cl)c3F)n2)cn1 (single isomer, unassigned)	5.37
C[C@H](O)[C@@H](c1ccccc1)n1cc(C(=O)N2CCC[C@@]3(C2)OC(=O)Nc2ccc(Cl)c(F)c23)cn1	5.25
CO[C@H](C)[C@H](c1ccccc1)n1cc(C(=O)N2CCC[C@@]3(C2)OC(=O)Nc2ccc(Cl)c(F)c23)cn1	5.57

1: CC(c1cnc(N2CC[C@H]2CN2CC[C@H](O)C2)nc1)n1cc(NC(=O)c2cncc(-c3c(C(F)F)ccc(Cl)c3F)n2)cn1 (stereo partly shown)
2: COc1c(F)cc(F)cc1-n1ncc(C(=O)N2CCC[C@@]3(C2)OC(=O)Nc2ccc(Cl)c(F)c23)c1N
Just curious, which one has the larger pIC50 reading, 1 or 2 ? // respond with label for picked entry
2

====

Below, pIC50 values reported for Coagulation factor XI (Homo sapiens) across several publications.
pIC50: −log10 of the molar value.
Endpoint name: pIC50

Compound	Target under test	Observed measurement
COC(=O)Nc1ccc(-c2cnc(C(CC3CC3)c3ccc(-c4cc(Cl)ccc4-c4cocn4)c[n+]3[O-])[nH]2)cc1 (racemic)	Coagulation factor XI (Homo sapiens)	6.08
CCC(c1ccccc1)n1ncc(C(=O)N2CCC[C@@]3(C2)OC(=O)Nc2ccc(Cl)c(F)c23)c1N (single isomer, unassigned)	Coagulation factor XI (Homo sapiens)	8.40
O=C(O)c1ncc(-c2c(C(F)F)ccc(Cl)c2F)nc1C(=O)Nc1cnn(Cc2cnc(N3CCC3)nc2)c1	Coagulation factor XI (Homo sapiens)	5.39
COCCC(C(=O)Nc1ccn2nccc2c1)n1cc2c(cc1=O)-c1cc(Cl)ccc1CC1(CC1)NC2=O (stereo not shown)	Coagulation factor XI (Homo sapiens)	7.96
Cc1cc(C(C)n2cc(NC(=O)c3cc(-c4c(C(F)F)ccc(Cl)c4F)c[n+]([O-])c3)cn2)cnc1N1C[C@H]2C[C@H]2C1=O (single isomer, unassigned)	Coagulation factor XI (Homo sapiens)	6.59
Cc1c(C(CO)n2cc(NC(=O)c3cncc(-c4c(C(F)F)ccc(Cl)c4F)n3)cn2)cnc(N2C[C@H]3C[C@H]3C2=O)c1C (single isomer, unassigned)	Coagulation factor XI (Homo sapiens)	5.44
CC1Cc2ccc(Cl)cc2-c2cc(=O)n(C(C[C@@H]3COCCO3)C(=O)Nc3ccc(C(N)=O)c(F)c3)cc2CO1 (mixture of isomers)	Coagulation factor XI (Homo sapiens)	7.85
O=C(Nc1ccc(-c2n[nH]c(=O)o2)cc1)[C@@H]1CCC2CC(c3c(-n4cnnn4)ccc(Cl)c3F)=CC(=O)N21 (mixture of isomers)	Coagulation factor XI (Homo sapiens)	8.74

1: Cc1noc(C)c1Cn1ncc(C(=O)N2CCC[C@@]3(C2)OC(=O)Nc2ccc(Cl)c(F)c23)c1N
2: Cc1nc(N2C[C@H]3C[C@H]3C2=O)ncc1C1(n2cc(NC(=O)c3nc(-c4c(C(F)F)ccc(Cl)c4F)cnc3C)cn2)CCC1
Would you mind telling me which has the lower recorded pIC50 between 1 and 2 ? Write the label of whichever entry you select.
2

A: Nc1c(C(=O)N2CCC[C@@]3(C2)OC(=O)Nc2ccc(Cl)c(F)c23)cnn1C1(c2ccc(F)cc2)CCC1
B: O=C(O)c1ccc(NC(=O)C(CC2CC2)c2ccc(-c3cc(Cl)ccc3-c3cnco3)c[n+]2[O-])cc1 (single isomer, unassigned)
Looking at A and B , which one comes out lower in pIC50 terms? Bench note: the answer is the label of the chosen record.
B
(B: 6.35, A: 6.78)

====

Listed below are compounds with IC50 for Coagulation factor XI (Homo sapiens, UniProt P03951), each taken from published literature.
Endpoint name: IC50 (nM)

Compound	IC50 [nM]
COc1cn(C(CCOC(C)(C)C)C(=O)Nc2ccc3nc(C(=O)O)cn3c2)c(=O)cc1-c1cc(Cl)ccc1OCC(F)(F)F (racemic)	2

I: CCC(C(=O)Nc1ccc(C(=O)O)cc1)n1cc2c(cc1=O)-c1cc(Cl)ccc1CC1(CC1)NC2=O (stereo not drawn)
II: CC1Cc2ccc(Cl)cc2-c2cc(=O)n(C(CCOC(C)(C)C)C(=O)Nc3ccc(C(N)=O)c(F)c3)cc2CO1 (mixture of isomers)
III: O=C(Nc1ccc2[nH]c(=O)cc(O)c2c1)[C@@H]1CCC2CC(c3c(-n4cnnn4)ccc(Cl)c3F)=CC(=O)N21 (mixture of isomers)
Could you please order the items by IC50, going from the lowest number to the highest? Field: ranking. Enter the labels in the order requested.
III, I, II
